Source: PubChem BioAssay (NCI)

- Tested on: CCRF-CEM leukemia
- method summary: NCI tumour cell line growth inhibition, 48 h

smiles notation | GI50
c1ccc(Oc2cnc3ccccc3n2)cc1 | > 100000 nM
COc1nc(C(Cl)(Cl)Cl)c(Cl)c(OC)c1Cl | > 45500 nM
O=C1COCCN1c1ccc(NCc2cn(Cc3ccc(F)cc3)c3ccccc23)cc1 | 5400 nM
O=c1c(Br)ccc(Br)cc1Br | 317 nM
Cn1cc(C2=C(c3cn(CCCN/C(N)=N\[N+](=O)[O-])c4ccccc34)C(=O)NC2=O)c2ccccc21 | 87.7 nM

----------
- Tested on: HOP-18 NSCLC
- method summary: NCI tumour cell line growth inhibition, 48 h
TGI reference

molecule | TGI
NC1=C(O)/C(=N/NS(=O)(=O)c2ccccc2)C(c2cccc(Cl)c2)O1 (stereo not drawn) | > 100 µM
CSc1nnc2n1-c1ccccc1SCC2 | > 100 µM
Cn1c(=O)c2nc3sc4ccccc4c(=N)n3c2n(C)c1=O | > 100 µM
